# Test description: NCI Yeast Anticancer Drug Screen. Data for the sgs1 mgt1 strain (AID 161);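 note: 0% = growth of cultures given vehicle only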
# Test settings: S. cerevisiae sgs1 mgt1 strain, at 50.0 µM, active compounds read high
Compounds without any hit were thinned out: in the full panel of roughly 79,000, 15% have a hit.

{"Compound": "Cn1c(=O)c2c(n(C)c1=O)n1c(=O)c3ccccc3nc1n2C", "Unit spec": "%", "growth inhibition": -15.6}
{"Compound": "CCCCCCC(C)(O)C(C)O (stereo not drawn)", "Unit spec": "%", "growth inhibition": 24.2}
{"Compound": "O=[N+]([O-])c1ccc(C2ON=C(c3ccccc3)N2C23CC4CC(CC(C4)C2)C3)cc1 (stereo not drawn)", "Unit spec": "%", "growth inhibition": -6.1}
{"Compound": "CCc1cc(CCC(=O)Nc2ccccc2[N+](=O)[O-])[nH]c(=S)n1", "Unit spec": "%", "growth inhibition": 11.3}
{"Compound": "O=C(O)C(Cl)C(Cl)c1ccc(Cl)cc1 (stereo not drawn)", "Unit spec": "%", "growth inhibition": 6.15}
{"Compound": "N=N/C(=C\\c1c(O)[nH]c2ccccc12)c1ccccc1", "Unit spec": "%", "growth inhibition": 34.2}
{"Compound": "CCOC(=O)C(=O)c1cn(C)c(=O)n(C)c1=O", "Unit spec": "%", "growth inhibition": 1.3}
{"Compound": "Cc1ccc(CO)cc1C", "Unit spec": "%", "growth inhibition": -2.2}
{"Compound": "COc1ccc(N2C(=O)C(=O)N(C)C2=O)c2ccccc12", "Unit spec": "%", "growth inhibition": -2}
{"Compound": "COCC12CCC(OC)C34C5CC6(O)C(OC)CC(OC(C)=O)(C5C6OC(=O)c5ccccc5)C(C(OC)C13)C4N(C)C2 (stereo not drawn)", "Unit spec": "%", "growth inhibition": -26.5}
{"Compound": "CC1=C(c2ccccc2)CON(c2ccccc2)C1", "Unit spec": "%", "growth inhibition": -9.2}
{"Compound": "O=c1c2c(oc3cc(OCC4CO4)ccc13)CCC2 (stereo not drawn)", "Unit spec": "%", "growth inhibition": -28.2}
{"Compound": "CCCOC(=O)c1cccnc1C(=O)OCCC", "Unit spec": "%", "growth inhibition": 1.5}
{"Compound": "O=C1OC([C@H](O)c2cccnc2)c2ccccc21 (stereo partly drawn)", "Unit spec": "%", "growth inhibition": -39.4}
{"Compound": "NC(=S)N/N=C/c1ccc(OC(F)(F)F)cn1", "Unit spec": "%", "growth inhibition": 46.5}
{"Compound": "O=c1[nH]c(Nc2ccccc2)nc2c1ncn2CC(O)CSCCO (stereo not drawn)", "Unit spec": "%", "growth inhibition": 26.7}
{"Compound": "CC(C)(C)OC(=O)c1c2ccccc2cc2ccccc12", "Unit spec": "%", "growth inhibition": 14}
{"Compound": "O=NNc1ccc(-c2ccc(NN=O)cc2)cc1", "Unit spec": "%", "growth inhibition": 10.8}

Provenance of the data: PubChem BioAssay (NCI)
